The reader will find reported metabolised at 72 h, 100 µM values listed item by item below.
Experiment: Stability in human serum assessed as compound degradation at 100 uM after 72 hrs
Assay type: ADME, cell-free
Details: read-out: Drug degradation
Non-standard residues stand in square brackets, D forms with d. Residues, ends and D or L forms follow the SMILES beside them. *: point of attachment. Dip = N[C@H](C(=O)O)C(c1ccccc1)c1ccccc1; Ahx = NCCCCCC(=O)O; AEA = NCCOCC(=O)O; NHNH2 = NN*
Give the number; % is assumed, so skip it.

NCCCCCC(=O)N[C@@H](CCCCN)C(=O)N[C@@H](CCCCN)C(=O)N[C@@H](Cc1c[nH]c2ccccc12)C(=O)N[C@@H](Cc1c[nH]c2ccccc12)C(=O)N[C@@H](CCCCN)C(=O)N[C@@H](CCCCN)C(=O)N[C@@H](Cc1c[nH]c2ccccc12)C(=O)N[C@H](C(=O)N[C@@H](CCCCN)C(N)=O)C(c1ccccc1)c1ccccc1 (H-[Ahx]KKWWKKW[Dip]K-NH2) = 75
CC(=O)N[C@@H](CCCCN)C(=O)N[C@@H](CCCCN)C(=O)N[C@@H](Cc1c[nH]c2ccccc12)C(=O)N[C@@H](Cc1c[nH]c2ccccc12)C(=O)N[C@@H](CCCCN)C(=O)N[C@@H](CCCCN)C(=O)N[C@@H](Cc1c[nH]c2ccccc12)C(=O)N[C@H](C(=O)N[C@@H](CCCCN)C(N)=O)C(c1ccccc1)c1ccccc1 (Ac-KKWWKKW[Dip]K-NH2) = 51
CC(=O)N[C@@H](CCCCN)C(=O)N[C@@H](CCCCN)C(=O)N[C@@H](Cc1c[nH]c2ccccc12)C(=O)N[C@@H](Cc1c[nH]c2ccccc12)C(=O)N[C@@H](CCCCN)C(=O)N[C@@H](CCCCN)C(=O)N[C@@H](Cc1c[nH]c2ccccc12)C(=O)N[C@H](C(=O)N[C@@H](CCCCN)C(=O)NN)C(c1ccccc1)c1ccccc1 (Ac-KKWWKKW[Dip]K-NHNH2) = 71

Note: attention shifts to another entry.
// query Return the recorded metabolised at 72 h, 100 µM value; entry: NCCCC[C@H](NC(=O)[C@@H](NC(=O)[C@H](Cc1c[nH]c2ccccc12)NC(=O)[C@H](CCCCN)NC(=O)[C@H](CCCCN)NC(=O)[C@H](Cc1c[nH]c2ccccc12)NC(=O)[C@H](Cc1c[nH]c2ccccc12)NC(=O)[C@H](CCCCN)NC(=O)[C@H](CCCCN)NC(=O)COCCN)C(c1ccccc1)c1ccccc1)C(N)=O (H-[AEA]KKWWKKW[Dip]K-NH2)
// result 60
